Attribution: ChEMBL document CHEMBL5033998

assay: Cmax in Sprague-Dawley rat at 10 mg/kg, po measured upto 24 hrs by LC-MS/MS analysis; type: ADME, organism-based; set-up: route oral, dose 10 mg/kg, time <=24; details: in vivo
READOUT_LABEL: Cmax (ng/mL)
Give bare numbers, in ng/mL.

For the compound `CN1CCN(c2cc(F)c(-c3ccc(C(=O)N(C)C)cc3)cc2Nc2ncnc(Cl)c2N)CC1` , give its reported Cmax.
159

###

assay: Permeability of compound at pH 7.4 incubated for 4 hrs by PAMPA assay; format: ADME; conditions: read-out: permeability
Give Papp at 4 h for every item shown.
Give bare numbers, in ×10⁻⁶ cm/s.

Would you please look over these solved cases?
- SMILES_TEXT: "CN1CCN(c2cc(F)c(-c3ccc(C(=O)NCCN4CCOCC4)cc3)cc2Nc2ncnc(Cl)c2N)CC1"
  UNIT_LABEL: "×10⁻⁶ cm/s"
  Papp at 4 h: 10.5
- SMILES_TEXT: "CN1CCN(c2cc(F)c(-c3ccc(C(=O)NCC4CCOCC4)cc3)cc2Nc2ncnc(Cl)c2N)CC1"
  UNIT_LABEL: "×10⁻⁶ cm/s"
  Papp at 4 h: 16.9
- SMILES_TEXT: "CN1CCN(c2cc(F)c(-c3ccc(C(=O)NCCCN4CCOCC4)cc3)cc2Nc2ncnc(Cl)c2N)CC1"
  UNIT_LABEL: "×10⁻⁶ cm/s"
  Papp at 4 h: 9.14

// for each compound below, give its Papp at 4 h
1. CN1CCN(c2cc(F)c(-c3ccc(C(=O)N4CCOCC4)cc3)cc2Nc2ncnc(Cl)c2N)CC1
2. CN1CCN(c2cc(F)c(-c3ccc(C(=O)N(C)C)cc3)cc2Nc2ncnc(Cl)c2N)CC1

1: 13.7; 2: 20.2
